Data origin, for the record: ChEMBL document CHEMBL5150053

test: Competitive reversible inhibition of bovine pancreatic RNase A using 2',3'-cCMP as substrate assessed as inhibition constant by spectrophotometric analysis; parameters: species or system Bos taurus
Readout kind: pKi
In simple prose, pKi is minus the logarithm base ten of a concentration in moles per litre.

Specify pKi for "Cc1cn([C@H]2C[C@H](S(=O)(=O)O)[C@@H](CO)O2)c(=O)[nH]c1=O" and stop.
5.68

Specify pKi for "O=C(O)CS(=O)(=O)[C@H]1[C@@H](O)[C@H](n2ccc(=O)[nH]c2=O)O[C@@H]1CO" and stop.
5.70

Specify pKi for "Nc1ccn([C@@H]2O[C@H](CO)[C@@H](S(=O)(=O)CC(=O)O)[C@H]2O)c(=O)n1" and stop.
5.76

Specify pKi for "O=C(O)c1nnn(C[C@H]2O[C@@H](OCc3cn(CCS(=O)(=O)O)nn3)[C@H](O)[C@@H]2O)c1C(=O)O" and stop.
4.34

Specify pKi for "O=c1ccn([C@@H]2O[C@H](CO)[C@@H](S(=O)(=O)O)[C@@H]2O)c(=O)[nH]1" and stop.
6.02

Specify pKi for "O=S(=O)(O)CCn1cc(CO[C@@H]2O[C@H](Cn3cc(CS(=O)(=O)O)nn3)[C@@H](O)[C@H]2O)nn1" and stop.
4.54

====

experiment: Uncompetitive inhibition of bovine pancreatic RNase A using 2',3'-cCMP as substrate assessed as inhibition constant by spectrophotometric analysis; parameters: species or system Bos taurus
Readout kind: pKi
In simple prose, pKi is minus the logarithm base ten of a concentration in moles per litre.

Specify pKi for "Cc1cn([C@H]2C[C@H](O)[C@@H](CO)O2)c(=O)n(Cc2cn(CC(=O)O)nn2)c1=O" and stop.
3.63

====

test: Linear mixed type inhibition of bovine pancreatic RNase A using 2',3'-cCMP as substrate assessed as inhibition constant by spectrophotometric analysis; design: species or system Bos taurus
Readout kind: pKi
In simple prose, pKi is minus the logarithm base ten of a concentration in moles per litre.

Specify pKi for "Cc1cn([C@H]2C[C@H](OCc3cn(CC(=O)O)nn3)[C@@H](COCc3cn(CC(=O)O)nn3)O2)c(=O)[nH]c1=O" and stop.
3.68

====

organism: Bos taurus; experiment: Inhibition of bovine pancreatic RNase A using tRNA as substrate assessed as substrate degradation preincubated with compound for 3 hrs followed by substrate addition and measured after 30 mins by ethidium bromide staining based agarose gel electrophoresis analysis; details: time 3.5 hrs
Calls of active or inactive are those of the source. The calls are words filed in the database; no cut-off is given here.
Readout kind: inhibition

Structure smiles string: Cc1cn([C@H]2C[C@H](OCc3cn(CC(=O)O)nn3)[C@@H](COCc3cn(CC(=O)O)nn3)O2)c(=O)n(Cc2cn(CC(=O)O)nn2)c1=O
Experimental result: Active
--
Structure smiles string: Cc1cn([C@H]2C[C@H](OCc3cn(CC(=O)O)nn3)[C@@H](COCc3cn(CC(=O)O)nn3)O2)c(=O)[nH]c1=O
Experimental result: Active
--
Structure smiles string: O=C(O)Cn1cc(COC[C@H]2O[C@@H](n3ccc(=O)n(Cc4cn(CC(=O)O)nn4)c3=O)[C@H](O)[C@@H]2O)nn1
Experimental result: Active
